molecular target: human glucagon receptor (Glucagon-R) (human, UniProt P47871 26-477); test: cell-based or functional assay
Response field label takes satisfied when EC50 (nM) GluR, cAMP formation is strictly below 0.4 nM and not satisfied in all other cases.

Use the examples below as a reference point.
HXQGTFTSDYSKYLDSKAAHDFVEWLLSA (Aib at position 2; K(Dodecanoyl-γ-Glu) at position 17; C-terminal amide (NH2)) [Compound 14]: not satisfied
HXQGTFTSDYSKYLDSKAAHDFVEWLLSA (Aib at position 2; K(Hexadecanoyl-[8-Aminooctanoyl]) at position 17; C-terminal amide (NH2)) [Compound 16]: not satisfied
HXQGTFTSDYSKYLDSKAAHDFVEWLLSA (Aib at position 2; K(Hexadecanoyl-γ-Glu) at position 17; C-terminal amide (NH2)) [Compound 7]: satisfied
H-HSQGTFTSDYSKYLDSKAAHDFVEWLLRA-NH2 [Compound 1]: satisfied

Say whether its EC50 (nM) GluR, cAMP formation is strictly beneath 0.4 nM. Entry: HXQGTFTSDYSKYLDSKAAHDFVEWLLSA (Aib at position 2; K(Hexadecanoyl-[3-Aminopropanoyl]) at position 17; C-terminal amide (NH2)) [Compound 15]
not satisfied
